# Test: Selectivity index, ratio of IC50 for rat L6 cells to IC50 for Trypanosoma brucei rhodesiense STIB900
# Type: toxicity, cell-based
# Experimental parameters: read-out: Ratio IC50
In this section we review reported selectivity ratio values for a set of compounds.
Lab note: write the figure by itself, no unit.

O=[N+]([O-])c1ccc2c(c1)CC([O-])=N[N+]21CCCCC1 = 1.6

Turning to the following compound.
Inquiry: Quickly give me recorded selectivity ratio for O=C(NN(c1ccccc1)c1ccccc1)c1cc([N+](=O)[O-])ccc1Cl
Reply text: 1.8

----------
# Test: Selectivity index, ratio of IC50 for rat L6 cells to IC50 for Trypanosoma brucei rhodesiense STIB900
# Format: toxicity, cell-based
# Experimental parameters: read-out: Ratio IC50
Grouping key: selectivity ratio. Bins: lower level = under 0.9, middle level = from 0.9 up to 5, upper level = 5 and over

CN1C(=O)C2CCCCN2c2ccc([N+](=O)[O-])cc21 (stereo not given) = lower level
Cn1c2ccc([N+](=O)[O-])cc2c(=O)n1-c1ccccc1 = lower level
CCOc1ccc([N+](=O)[O-])cc1C(=O)NN(c1ccccc1)c1ccccc1 = upper level
CN(C)CCOc1nn(Cc2ccccc2)c2ccc([N+](=O)[O-])cc12 = upper level
O=C(NN1CCc2ccccc2C1)c1cc([N+](=O)[O-])ccc1F = upper level
O=C(NN1Cc2ccccc2C1)c1cc([N+](=O)[O-])ccc1F = upper level
CN1C(=O)CN(CCCCCN2CCCCC2)c2ccc([N+](=O)[O-])cc21 = middle level
O=C(NN1Cc2ccccc2C1)c1cc([N+](=O)[O-])ccc1Cl = lower level

Inquiry: Class (by measured selectivity ratio) for Cn1c2ccc([N+](=O)[O-])cc2c(=O)n1Cc1ccccc1
Reply text: upper level

Inquiry: Bin this entry: CN(C)CCCOc1nn(Cc2ccccc2F)c2ccc([N+](=O)[O-])cc12
Reply text: upper level

Inquiry: Form field 'band' for O=c1[nH]n(Cc2ccccc2F)c2ccc([N+](=O)[O-])cc12
Reply text: middle level

Entry source: ChEMBL document CHEMBL2046395
